molecular target: Microphthalmia-associated transcription factor (Homo sapiens); assay: MITF inhibitors, primary screen, biochemical, AlphaScreen, human (AID 1259374); settings: AlphaScreen MITF homodimerization, bead proximity signal; at 2.6 µM
Out of some 650,000 compounds screened, about 5,900 (0.91%) were called active. No stated cut-off is given here; in the data, active means inhibition above about 50%; inactive means the rest. What follows is part of a selection rich in actives, with near analogues and random picks from the rest.
The categories you may choose from are y for active, n for inactive

Observe how each entry below is paired with its result.
compound	class label
CCN(C(=O)Cc1nc(N)n[nH]1)C1(C(=O)Nc2ccccc2)CCCCC1	y
Cc1cc(OCCN2CCOCC2)nc(N2CCOCC2)n1	n
CC1CCCC(N2CCN(Cc3ccccc3Cl)CC2)C1 (configuration not stated)	y
CC1=C(C(=O)OCC(C)C)C(c2cccc(OCc3ccccc3)c2)C2=C(CCCC2=O)N1 (configuration not stated)	n
CC(=O)c1cccc(N2C(=O)c3cccnc3C2=O)c1	y
COCCCN(C(=O)c1cc2ccccc2o1)C1(C(=O)Nc2ccccc2)CCCC1	n
O=C(CNCc1cccnc1)Nc1ccc(C(=O)N2CCCCC2)cc1	y
O=C(Nc1ccc(C(=O)N2CCCCC2)cc1)c1cccc(I)c1	n

Input line: Each compound tested received a call. Report the one for CC(C)[C@@H](C(=O)OCC(=O)Nc1cccnc1Cl)N1C(=O)c2ccccc2C1=O .
Output line: n

Input line: Each compound tested received a call. Report the one for O=C(C1CCN(c2nc3ccccc3n3cccc23)CC1)N1CCN(c2ccccn2)CC1 .
Output line: n

Input line: Each compound tested received a call. Report the one for CC(=O)c1cccc(N2C(=O)c3ccc([N+](=O)[O-])cc3C2=O)c1 .
Output line: n

Input line: Each compound tested received a call. Report the one for CCN(C(=O)Cc1nc(N)n[nH]1)C1(C(=O)Nc2ccc(C)cc2)CCCCC1 .
Output line: y

Input line: Each compound tested received a call. Report the one for NCC1CCN(Cc2ccccc2Cl)CC1 .
Output line: n

Input line: Each compound tested received a call. Report the one for O=C(C1CCN(Cc2nc3ccccc3[nH]2)CC1)N1CCN(c2ccc(Cl)nn2)CC1 .
Output line: n

Input line: Each compound tested received a call. Report the one for O=C(Nc1ccc2c(c1)OCO2)C(c1ccccc1)N1CCC(Cc2ccccc2)CC1 (configuration not stated) .
Output line: n

Input line: Each compound tested received a call. Report the one for COc1ccc(S(=O)(=O)/N=C2/C=C(Nc3ccc(O)cc3)C(=O)c3ccccc32)cc1 .
Output line: n

Input line: Each compound tested received a call. Report the one for COc1ccc(NC(=O)C2(N(C)C(=O)Cn3nnnc3N)CCCCC2)cc1 .
Output line: n

Input line: Each compound tested received a call. Report the one for COc1ccccc1NC1=C/C(=N/S(=O)(=O)c2ccc(F)cc2)c2ccccc2C1=O .
Output line: y

Input line: Each compound tested received a call. Report the one for COC(=O)c1ccccc1NC1=C/C(=N/S(=O)(=O)c2ccccc2)c2ccccc2C1=O .
Output line: n

Input line: Each compound tested received a call. Report the one for Cc1cc(Cl)c(OCCN2CCOCC2)c(Br)c1 .
Output line: n

Input line: Each compound tested received a call. Report the one for COC(=O)c1ccc(C2C(C(=O)OCCOc3ccccc3)=C(C)NC3=C2C(=O)CCC3)cc1 (configuration not stated) .
Output line: n

Input line: Each compound tested received a call. Report the one for COc1cc(CN2CCN(C(=O)C(c3ccccc3)c3ccccc3)CC2)cc(OC)c1OC .
Output line: y

The measured values listed here are drawn from PubChem BioAssay AID1259374.
